Where do these numbers come from? They come from the RNAGym collection of RNA variant scans (doi:10.1021/acssynbio.7b00057).

# key: entry, value: aptazyme ON/OFF ratio
B1: Pistol ribozyme (parent)
chain: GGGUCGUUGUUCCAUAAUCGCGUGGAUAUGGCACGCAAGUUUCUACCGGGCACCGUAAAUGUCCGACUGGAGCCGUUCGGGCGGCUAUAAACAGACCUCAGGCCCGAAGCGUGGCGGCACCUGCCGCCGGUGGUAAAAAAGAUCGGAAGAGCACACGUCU

Variants of: B1
Experiment summary: aptazyme ON/OFF ratio, guanine; higher = stronger switching; co-transcriptional cleavage with and without guanine
Property: aptazyme ON/OFF ratio

| Variant identifier | Measured result |
| --- | --- |
| U7G C12U C13A | 1.21 |
| U7A U8G G9C U10C C13U | 1.28 |
| U8C G9U U10C U11G C12U | 1.22 |
| U7A U8C G9U U10G U11C C13G | 1.08 |
| U7G U8G G9C U11C C12G | 3 |
| G9U U10C C12U C13U | 1.63 |
| U7A G9A U10C C12A | 1.43 |
| U7A U8G G9C U10A U11A C12G C13G | 1.36 |
| U7A U8G G9A U10A C12U C13A | 1.38 |
| U7C U8C G9C U10G U11C C12A | 1.09 |
| U7C U8G G9U U11C C12G C13A | 1.26 |
| U7G U8G G9C U10C U11A C12A C13G | 1.23 |
| U7G U8G G9C U11A C12G C13G | 1.07 |
| U8C G9U U10G U11C C12U | 1.04 |
| U7C U8G G9A U10G U11C C13U | 1.03 |
| U7A U8G U10A U11A C12U C13G | 1.25 |
| U7A U8G G9A C12U | 1.63 |
| U7A G9C U10G U11C | 1.03 |
| U7A U8A G9U U10A U11C C12G | 1.18 |
| U7G G9A U10A U11C | 1.09 |
| U7G U8A G9C C12G C13A | 1.02 |
| U7G G9U U11C C12A C13U | 1.41 |
| U7C U8A U10C U11A C13G | 1.15 |
| U7A G9A U10C C12A C13A | 1.13 |
| U7G C12A C13A | 1.22 |
| U7C G9U U10G C13U | 1.37 |
| U7C U8C U10A U11G C13A | 1.25 |
| U7A U8G G9A U11G | 1.64 |
| U7A U8G G9U U10A U11G C12U C13G | 1.16 |
| U7A G9C U11G C12U C13U | 1.32 |
| U8G U10G | 1.32 |
| U7A U8A U11C C12U C13A | 1.21 |
| U7G G9C U10G U11G C12A C13A | 1.1 |
| U8G G9C U10C U11C C12U | 1.06 |
| U7G U8A G9C U10G | 1.1 |
| U7C U8G G9C U10G C12A C13A | 1.16 |
| U7G U8G G9A U10G C13U | 1.27 |
| U7C G9C U10C C13A | 1.04 |
| U7C G9C U10C C12A C13G | 1.06 |
| U8C U10G U11A C12U C13U | 1.25 |
| U7G U8A U10C C12G C13G | 1.17 |
| U7G G9C U11A C12U | 1.65 |
| U7G G9C U10G U11A C12U C13U | 1.23 |
| U7A U8C G9A U10G U11G C12U C13A | 1.29 |
| U7C U8G G9C U10C U11C | 1.04 |
| U8C U11C C12A | 1.14 |
